Provide the reported Ratio Ki of each item.
# Species: Homo sapiens
# protocolDetails: Selectivity ratio of Ki for human adenosine A1 receptor to Ki for human adenosine A2A receptor
Reply with the value as a number alone.

Prompt line: What value of Ratio Ki has been reported for the following compound? COCCN(C)c1cccc(-c2cc(NC(C)=O)nc(-n3nc(C)cc3C)n2)n1
Response line: 76

Prompt line: Same again, this time with COc1cc(OC)cc(-c2cc(NC(C)=O)nc(-n3nc(C)cc3C)n2)c1
Response line: 116

Prompt line: Same again, this time with COC(=O)Nc1cc(-c2cncc(OC)c2)nc(-n2nc(C)cc2C)n1
Response line: 106

Prompt line: Same again, this time with CC(=O)Nc1cc(-c2cncc(N3CCOCC3)c2)nc(-n2nc(C)cc2C)n1
Response line: 74

Prompt line: Same again, this time with CC(=O)Nc1cc(-c2ccncc2)nc(-n2nc(C)cc2C)n1
Response line: 21

###

Provide the reported concentration at 2 h of each item.
# protocolDetails: Plasma concentration in rat at 10 mg/kg, po after 2 hrs
# Assay type: ADME, organism-based
# Design: dose 10 mg/kg, route oral

Prompt line: What value of concentration at 2 h has been reported for the following compound? CC(=O)Nc1cc(-c2cccc(N3CCC(O)CC3)n2)nc(-n2nc(C)cc2C)n1
Response line: 16 ng/mL

Prompt line: Same again, this time with COCCN(C)c1cccc(-c2cc(NC(C)=O)nc(-n3nc(C)cc3C)n2)n1
Response line: 220 ng/mL

Prompt line: Same again, this time with CCC(=O)Nc1cc(-c2cncc(OC)c2)nc(-n2nc(C)cc2C)n1
Response line: 860 ng/mL

Prompt line: Same again, this time with CC(=O)Nc1cc(-c2cccc(N3CCN(C)CC3)n2)nc(-n2nc(C)cc2C)n1
Response line: 53 ng/mL

Prompt line: Same again, this time with CC(=O)Nc1cc(-c2cccc(N3CCOCC3)n2)nc(-n2nc(C)cc2C)n1
Response line: 150 ng/mL

Prompt line: Same again, this time with COc1cc(OC)cc(-c2cc(NC(C)=O)nc(-n3nc(C)cc3C)n2)c1
Response line: 1330 ng/mL

Prompt line: Same again, this time with CC(=O)Nc1cc(-c2cccc(N(C)C)n2)nc(-n2nc(C)cc2C)n1
Response line: 290 ng/mL

Prompt line: Same again, this time with COC1CN(c2cccc(-c3cc(NC(C)=O)nc(-n4nc(C)cc4C)n3)n2)C1
Response line: 150 ng/mL

Prompt line: Same again, this time with CC(=O)Nc1cc(-c2cncc(O)c2)nc(-n2nc(C)cc2C)n1
Response line: 264 ng/mL

###

# protocolDetails: Aqueous solubility in phosphate-buffered saline at pH 7.4
# Format: physicochemical
Criterion: solubility meeting or surpassing 200 µg/mL. Met: Satisfied. Not met: Not satisfied.

Prompt line: Reported solubility reaches at least 200 µg/mL for CC(=O)Nc1cc(-c2cccc(N3CCOCC3)n2)nc(-n2nc(C)cc2C)n1 ?
Response line: Not satisfied

Prompt line: Same again, this time with COC1CN(c2cccc(-c3cc(NC(C)=O)nc(-n4nc(C)cc4C)n3)n2)C1
Response line: Not satisfied

Prompt line: Same again, this time with COc1cccc(-c2cc(NC(C)=O)nc(-n3nc(C)cc3C)n2)c1F
Response line: Not satisfied

Prompt line: Same again, this time with CC(=O)Nc1cc(-c2cccc(N3CCN(C)CC3)n2)nc(-n2nc(C)cc2C)n1
Response line: Satisfied

Prompt line: Same again, this time with COc1cc(OC)cc(-c2cc(NC(C)=O)nc(-n3nc(C)cc3C)n2)c1
Response line: Not satisfied

###

Provide the reported concentration at 2 h of each item.
# protocolDetails: Drug concentration in rat brain at 10 mg/kg, po after 2 hrs
# Assay type: ADME, organism-based
# Set-up: dose 10 mg/kg, route oral
# conditionSet: read-out: Drug uptake
Hi! Could you send only the number? It should be in ng/g, unit omitted.

Prompt line: What value of concentration at 2 h has been reported for the following molecule? CC(=O)Nc1cc(-c2cccc(N3CCN(C)CC3)n2)nc(-n2nc(C)cc2C)n1
Response line: 91

Prompt line: Same again, this time with CC(=O)Nc1cc(-c2cccc(N(C)C)n2)nc(-n2nc(C)cc2C)n1
Response line: 180

Prompt line: Same again, this time with COCCN(C)c1cccc(-c2cc(NC(C)=O)nc(-n3nc(C)cc3C)n2)n1
Response line: 870

Prompt line: Same again, this time with CC(=O)Nc1cc(-c2cncc(O)c2)nc(-n2nc(C)cc2C)n1
Response line: 154

###

# protocolDetails: Drug concentration in rat brain at 30 mg/kg, po after 2 hrs
# Format: ADME, organism-based
# Parameters: dose 30 mg/kg, route oral
# conditionSet: read-out: Drug uptake
readout: concentration at 2 h
Include the unit right after the number.

Prompt line: What value of concentration at 2 h has been reported for the following compound? CC(=O)Nc1cc(-c2cccc(N3CCC(O)CC3)n2)nc(-n2nc(C)cc2C)n1
Response line: 91 ng/g

###

Target or system UniProt:P29274; recorded quantity Ki.
Sequence (P29274 whole entry): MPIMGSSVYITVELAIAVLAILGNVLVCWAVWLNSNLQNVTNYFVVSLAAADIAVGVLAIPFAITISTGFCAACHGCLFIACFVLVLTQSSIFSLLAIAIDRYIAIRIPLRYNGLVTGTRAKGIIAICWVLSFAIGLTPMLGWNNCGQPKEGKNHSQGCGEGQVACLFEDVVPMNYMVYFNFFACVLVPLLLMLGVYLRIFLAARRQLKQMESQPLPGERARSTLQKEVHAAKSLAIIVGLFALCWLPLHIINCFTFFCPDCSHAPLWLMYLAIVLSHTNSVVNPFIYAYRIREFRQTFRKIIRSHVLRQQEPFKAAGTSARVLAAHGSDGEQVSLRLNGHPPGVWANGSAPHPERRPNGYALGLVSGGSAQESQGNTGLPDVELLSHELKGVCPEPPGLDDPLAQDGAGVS
Hi! Could you send only the number? It should be in nM, unit omitted.

Prompt line: Item: COC1CN(c2cccc(-c3cc(NC(C)=O)nc(-n4nc(C)cc4C)n3)n2)C1 Test system: UniProt:P29274 Read-out: Ki Value: ?
Response line: 0.47

Prompt line: Same again, this time with COc1cncc(-c2cc(NC(=O)CN3CCOCC3)nc(-n3nc(C)cc3C)n2)c1
Response line: 4

Prompt line: Same again, this time with CC(=O)Nc1cc(-c2cccc(N)n2)nc(-n2nc(C)cc2C)n1
Response line: 7.9

Prompt line: Same again, this time with CC(=O)Nc1cc(-c2cccc(N3CCC(O)CC3)n2)nc(-n2nc(C)cc2C)n1
Response line: 1.9

Prompt line: Same again, this time with COCCOc1cncc(-c2cc(NC(C)=O)nc(-n3nc(C)cc3C)n2)c1
Response line: 3.1

Prompt line: Same again, this time with COc1cccc(-c2cc(NC(C)=O)nc(-n3nc(C)cc3C)n2)c1
Response line: 0.92

Prompt line: Same again, this time with CC(=O)Nc1cc(-c2ccnc(N3CCOCC3)c2)nc(-n2nc(C)cc2C)n1
Response line: 12

Prompt line: Same again, this time with CC(=O)Nc1cc(-c2cccnc2)nc(-n2nc(C)cc2C)n1
Response line: 120

###

Target or system Cytochrome P450 3A4 (Homo sapiens); recorded quantity IC50.

Prompt line: What value of IC50 has been reported for the following compound? CC(=O)Nc1cc(-c2cccc(N)n2)nc(-n2nc(C)cc2C)n1
Response line: > 20 µM

Prompt line: Same again, this time with CC(=O)Nc1cc(-c2cncc(N3CCOCC3)c2)nc(-n2nc(C)cc2C)n1
Response line: > 20 µM

Prompt line: Same again, this time with CC(=O)Nc1cc(-c2cccc(N3CCCOCC3)n2)nc(-n2nc(C)cc2C)n1
Response line: > 20 µM

Prompt line: Same again, this time with COc1cccc(-c2cc(NC(C)=O)nc(-n3nc(C)cc3C)n2)c1F
Response line: > 20 µM

Prompt line: Same again, this time with CC(=O)Nc1cc(-c2cccc(N3CCOCC3)n2)nc(-n2nc(C)cc2C)n1
Response line: > 20 µM

Prompt line: Same again, this time with CC(=O)Nc1cc(-c2cccc(N3CCCC3)n2)nc(-n2nc(C)cc2C)n1
Response line: > 20 µM

Prompt line: Same again, this time with CCC(=O)Nc1cc(-c2cncc(OC)c2)nc(-n2nc(C)cc2C)n1
Response line: 17 µM

Prompt line: Same again, this time with CC(=O)Nc1cc(-c2ccccc2)nc(-n2nc(C)cc2C)n1
Response line: 43 µM

Prompt line: Same again, this time with COc1cccc(-c2cc(NC(C)=O)nc(-n3nc(C)cc3C)n2)c1
Response line: 0.74 µM

Prompt line: Same again, this time with COc1cncc(-c2cc(NC(=O)CN3CCOCC3)nc(-n3nc(C)cc3C)n2)c1
Response line: > 20 µM

###

# protocolDetails: Metabolic stability in human liver microsomes assessed as intrinsic clearance by LC-MS/MS analysis
# Format: ADME, Microsome
readout: CLint scaled (mL/min/kg)
Hi! Could you send only the number? It should be in mL/min/kg, unit omitted.

Prompt line: What value of CLint scaled has been reported for the following molecule? CC(=O)Nc1cc(-c2cncc(N3CCOCC3)c2)nc(-n2nc(C)cc2C)n1
Response line: 12

Prompt line: Same again, this time with CC(=O)Nc1cc(-c2cccc(N3CCN(C)CC3)n2)nc(-n2nc(C)cc2C)n1
Response line: 3

Prompt line: Same again, this time with CC(=O)Nc1cc(-c2cncc(O)c2)nc(-n2nc(C)cc2C)n1
Response line: 41

Prompt line: Same again, this time with CCOC(=O)Nc1cc(-c2cncc(OC)c2)nc(-n2nc(C)cc2C)n1
Response line: 38

Prompt line: Same again, this time with COc1cncc(-c2cc(NC(C)=O)nc(-n3nc(C)cc3C)n2)c1
Response line: 35

Prompt line: Same again, this time with COC1CCN(c2cccc(-c3cc(NC(C)=O)nc(-n4nc(C)cc4C)n3)n2)CC1
Response line: 41

Prompt line: Same again, this time with CCC(=O)Nc1cc(-c2cncc(OC)c2)nc(-n2nc(C)cc2C)n1
Response line: 29

Prompt line: Same again, this time with COC1CN(c2cccc(-c3cc(NC(C)=O)nc(-n4nc(C)cc4C)n3)n2)C1
Response line: 25

Prompt line: Same again, this time with CC(=O)Nc1cc(-c2cccc(N3CCC(O)CC3)n2)nc(-n2nc(C)cc2C)n1
Response line: 43

Prompt line: Same again, this time with COCCN(C)c1cccc(-c2cc(NC(C)=O)nc(-n3nc(C)cc3C)n2)n1
Response line: 52
